SYSTEM: KRAS Q61H (Homo sapiens, UniProt P01116+P62937, Q61H)
Sequence (P01116 1-169 isoform P01116-2 Q61H limits assumed): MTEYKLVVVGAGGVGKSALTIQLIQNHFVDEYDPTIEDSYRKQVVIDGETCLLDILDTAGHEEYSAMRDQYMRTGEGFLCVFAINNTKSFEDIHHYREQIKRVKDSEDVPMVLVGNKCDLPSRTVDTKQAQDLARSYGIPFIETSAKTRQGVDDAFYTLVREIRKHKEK
Sequence (P62937 whole entry): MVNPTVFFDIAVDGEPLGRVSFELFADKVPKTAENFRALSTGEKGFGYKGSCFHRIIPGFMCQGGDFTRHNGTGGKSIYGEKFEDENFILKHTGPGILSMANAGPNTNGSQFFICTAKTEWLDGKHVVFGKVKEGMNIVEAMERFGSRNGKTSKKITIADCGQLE
TEST_PROTOCOL: Disruption of BRAF RBD interaction with Ras (FRET / MOA assay, with Cyclophilin A)
Format: biochemical
ASSAY_CONTEXT: KRAS Q61H; read-out: KRAS Q61H FRET data IC50
Measured IC50 by item
OBSERVED_PROPERTY: IC50

>>> recorded_value("C=CC(=O)N1CC[C@H](C(=O)N(C)[C@H](C(=O)N[C@H]2Cc3cc(O)cc(c3)-c3ccc4c(c3)c(c(-c3ccncc3)n4C(C)(C)C#N)CC(C)(C)COC(=O)[C@@H]3CCCN(N3)C2=O)C(C)C)C1 [Example A086]")
"100 to 1000 nM"
>>> recorded_value("CCn1c(-c2cccnc2[C@H](C)OC)c2c3cc(ccc31)-c1csc(n1)C[C@H](NC(=O)[C@H](C(C)C)N(C)C(=O)N1CCN(C)CC1)C(=O)N1CCC[C@H](N1)C(=O)OCC(C)(C)C2 [Example A570]")
"100 to 1000 nM"
>>> recorded_value("CCn1c(-c2cccnc2[C@H](C)OC)c2c3cc(ccc31)-c1csc(n1)C[C@H](NC(=O)[C@H](C(C)C)N(C)C(=O)N1CC3(CC(N(C)CCO)C3)C1)C(=O)N1CCC[C@H](N1)C(=O)OCC(C)(C)C2 (atropisomer, axis not shown) [Example A467]")
"10 to 100 nM"
>>> recorded_value("CCn1c(-c2cccnc2[C@H](C)OC)c2c3cc(ccc31)-c1csc(n1)C[C@H](NC(=O)[C@H](C(C)C)N(C)C(=O)N1CCN3CCOC[C@@H]3C1)C(=O)N1CCC[C@H](N1)C(=O)OCC(C)(C)C2 [Example A547]")
"100 to 1000 nM"
>>> recorded_value("CCn1c(-c2cccnc2[C@H](C)OC)c2c3cc(ccc31)-c1csc(n1)C[C@H](NC(=O)[C@H](C(C)C)N(C)C(=O)N1CC(NC)C1)C(=O)N1CCC[C@H](N1)C(=O)OCC(C)(C)C2 (atropisomer, axis not shown) [Example A337]")
"100 to 1000 nM"
>>> recorded_value("C=CS(=O)(=O)N1CC[C@H](C(=O)N(C)[C@H](C(=O)N[C@H]2Cc3nc(cs3)-c3ccc4c(c3)c(c(-c3cncnc3)n4CC)CC(C)(C)COC(=O)[C@@H]3CCCN(N3)C2=O)C(C)C)C1 [Example A170]")
"> 10000 nM"
>>> recorded_value("C=CC(=O)N1CCO[C@H]2CCN(C(=O)N(C)[C@H](C(=O)N[C@H]3Cc4nc(cs4)-c4ccc5c(c4)c(c(-c4cccnc4[C@H](C)OC)n5CC)CC(C)(C)COC(=O)C4CCCN(N4)C3=O)C(C)C)C[C@@H]21 (stereo partly drawn) [Example A609]")
"10 to 100 nM"
>>> recorded_value("CCn1c(-c2cccnc2[C@H](C)OC)c2c3cc(ccc31)-c1csc(n1)C[C@H](NC(=O)[C@H](C(C)C)N(C)C(=O)N1CCC3(CN(C)C3)C1)C(=O)N1CCC[C@H](N1)C(=O)OCC(C)(C)C2 (atropisomer, axis not shown) [Example A503]")
"10 to 100 nM"
>>> recorded_value("CCn1c(-c2cnccc2COC)c2c3cc(ccc31)-c1cc(O)cc(c1)C[C@H](NC(=O)[C@H](C(C)C)N(C)C(=O)c1ncco1)C(=O)N1CCC[C@H](N1)C(=O)OCC(C)(C)C2 [Example A38]")
"10 to 100 nM"
